Just for reference, a melting point compilation (Tetko et al.; mined from patent text by program, amines drawn as free bases though some values may be those of a salt) is where these values come from.

# melting point values compiled below

# annotated cases, reported melting point shown
| molecule | measured |
| --- | --- |
| CCCCc1ncc(C(=O)O)s1 | 97 °C |
| CNC(=O)CC(SC(=O)c1ccccc1)C(CC(C)C)C(=O)NC(Cc1ccc(OC)cc1)C(=O)NC (stereo not given) | 140 to 144 °C |
| CCCCC(CC)c1nc2cc(O)c(C#N)c(C)n2n1 (stereo not given) | 253 to 254 °C |
| Cc1cc(-c2ccc(F)cc2)ccc1C(=O)Nc1ccc2cc(CN3CCCC3)cnc2c1C | 200 to 203 °C |
| CC#CCOc1ccc(S(=O)(=O)C2(C(=O)O)CCN(Cc3ccc(Cl)c(Cl)c3)CC2)cc1 | 213 °C |
| N#CC1CCc2c([nH]c3ccc(Cl)cc23)C1 (stereo not given) | 181 to 182 °C |
| Cc1ccc(OCCOc2ccc(C)cc2)cc1 | 134 °C |
| COC(=O)c1ccc(C(=O)C2=C(C)C(=O)c3ccccc3C2=O)cc1 | 162 °C |
| COc1ccc2c(n1)CC(=O)N2CCCO | 121 to 122 °C |
| Cn1nc2c(N)nc3ccccc3c2c1CCCCNS(C)(=O)=O | 188 to 189 °C |

Prompt: For the molecule "CC1(c2cc(-c3cccc(C=C4SC(N5CCCC5)=NC4=O)c3)ccc2O)CCCCC1" , report melting point.
Response: 278 to 280 °C

Prompt: For the molecule "CC1(C)C(=O)Nc2cc3oc(Cc4ccncc4)nc3cc21" , report melting point.
Response: 208 to 211 °C

Prompt: For the molecule "Cc1cc(C(C)(C)CCl)c(Cl)nn1" , report melting point.
Response: 41 to 42 °C

Prompt: For the molecule "CN1CC[C@@H](c2c(O)cc(O)c3c(=O)cc(-c4cccc(F)c4)oc23)[C@@H]1CO" , report melting point.
Response: 218 to 220 °C

Prompt: For the molecule CC(=O)OCC(=O)C1(OC(C)=O)CCC2C3CC(C)C4=CC(=O)C=CC4(C)C3C(O)CC21C (stereo not given) , report melting point.
Response: 216 °C
